Values were extracted from PubChem BioAssay.

# Test system: Human papillomavirus type 1a E7 protein (residues 1-88)
# assay.protocol: HPV1a E7 small-molecule binders, primary screen, biochemical, small-molecule microarray, residues 1-88, 635 nm (AID 1129)
# condition.info: small-molecule microarray binding, fluorescence 635 nm; higher = more signal
observable: composite z-score

- compound: "COCCOC(=O)N1C(=O)[C@@]2(c3cc(C#CC4=CCCCC4)ccc31)[C@H](C(=O)N1CCc3cc(OC)c(OC)cc3C1)[C@H]1C(=O)O[C@H](c3ccccc3)[C@H](c3ccccc3)N1[C@@H]2c1ccc(OCCO)cc1"
  target.system: "Human papillomavirus type 1a E7 protein (residues 1-88)"
  assay.result: 1.14
- compound: "COCCOC(=O)N1C(=O)[C@@]2(c3cc(C#CCCO)ccc31)[C@H](C(=O)N1CCc3cc(OC)c(OC)cc3C1)[C@H]1C(=O)O[C@H](c3ccccc3)[C@H](c3ccccc3)N1[C@@H]2c1ccc(O)cc1"
  target.system: "Human papillomavirus type 1a E7 protein (residues 1-88)"
  assay.result: 1.22
- compound: "C=C(COC)/C(=C/C[C@H](OC(=O)c1ccncc1)c1ccc(OCCO)cc1)c1cnc2ccccc2c1"
  target.system: "Human papillomavirus type 1a E7 protein (residues 1-88)"
  assay.result: 1.2
- compound: "C=CCOC(=O)[C@@H]1[C@H]2C(=O)O[C@H](c3ccccc3)[C@H](c3ccccc3)N2[C@H](c2ccc(OCCOC(=O)[C@@H]3C[C@@H]4C(=O)N[C@@H](Cc5ccccc5)C(=O)N4[C@@H]3c3ccc(O)cc3)cc2)[C@@]12C(=O)Nc1ccc(I)cc12"
  target.system: "Human papillomavirus type 1a E7 protein (residues 1-88)"
  assay.result: 0.947
- compound: "COC(=O)c1c(CC[C@@H](CO)NC(=O)N[C@@H](C)Cn2cc(C3(O)CCCCC3)nn2)oc(C(C)=O)c1C(=O)OC"
  target.system: "Human papillomavirus type 1a E7 protein (residues 1-88)"
  assay.result: 1.12
- compound: "C=CCC(OC(C)=O)[C@@H]1[C@@H](N(Cc2cccc3ccccc23)C(=O)c2ccc(-c3ccccc3)cc2)c2cc(OCCCO)ccc2N1C(=O)Cc1ccc(OC)cc1 (stereo partly drawn)"
  target.system: "Human papillomavirus type 1a E7 protein (residues 1-88)"
  assay.result: -0.128
- compound: "COC(=O)[C@@]1(Cc2ccccc2)[C@H]2c3cc(C(=O)N4CCCC4)n(Cc4nc5ccccc5[nH]4)c3C[C@H]2CN1C(=O)c1ccccc1"
  target.system: "Human papillomavirus type 1a E7 protein (residues 1-88)"
  assay.result: 1.24
- compound: "CCOC(=O)C1=CCC(c2ccccc2)N(S(=O)(=O)CC[Si](C)(C)C)C1 (stereo not drawn)"
  target.system: "Human papillomavirus type 1a E7 protein (residues 1-88)"
  assay.result: -0.401
- compound: "COc1ccc(COC2OC[C@]3(C)[C@H]4C5=C(CN3C(=O)OC(C)(C)C)[C@H](C)C(CO)C(CO)C5CC[C@@H]24)cc1 (stereo partly drawn)"
  target.system: "Human papillomavirus type 1a E7 protein (residues 1-88)"
  assay.result: 1.19
- compound: "C#CCN(CC1=CCCCC1)[C@H](c1ccccc1Br)[C@@H](O)Cc1ccccc1"
  target.system: "Human papillomavirus type 1a E7 protein (residues 1-88)"
  assay.result: -0.0173
- compound: "C=CCOC(=O)[C@@H]1[C@H]2C(=O)O[C@H](c3ccccc3)[C@H](c3ccccc3)N2[C@H](c2ccc(OCCOC(=O)[C@@H]3C[C@@H]4C(=O)N[C@@H](CCCC[N+](C)(C)C)C(=O)N4[C@@H]3c3cccc(OCCO)c3)cc2)[C@@]12C(=O)Nc1ccc(I)cc12"
  target.system: "Human papillomavirus type 1a E7 protein (residues 1-88)"
  assay.result: 1.17
- compound: "CN1C(=O)C2C=CC(C(O)C3CCCCC3)N(Nc3ccc([N+](=O)[O-])cc3[N+](=O)[O-])C2C1=O (stereo not drawn)"
  target.system: "Human papillomavirus type 1a E7 protein (residues 1-88)"
  assay.result: 1.25
- compound: "CCOC(=O)C[C@H]1[C@H](OC(=O)Cc2ccc3c(c2)OCO3)[C@@H](NC(=O)c2ccc(-c3ccccc3)cc2)c2cc(OCCCO)ccc2N1C(=O)c1ccc2ccccc2n1"
  target.system: "Human papillomavirus type 1a E7 protein (residues 1-88)"
  assay.result: 0.242
